Target: FtsZ (Bacillus subtilis, UniProt P17865)
Sequence (P17865 1-382): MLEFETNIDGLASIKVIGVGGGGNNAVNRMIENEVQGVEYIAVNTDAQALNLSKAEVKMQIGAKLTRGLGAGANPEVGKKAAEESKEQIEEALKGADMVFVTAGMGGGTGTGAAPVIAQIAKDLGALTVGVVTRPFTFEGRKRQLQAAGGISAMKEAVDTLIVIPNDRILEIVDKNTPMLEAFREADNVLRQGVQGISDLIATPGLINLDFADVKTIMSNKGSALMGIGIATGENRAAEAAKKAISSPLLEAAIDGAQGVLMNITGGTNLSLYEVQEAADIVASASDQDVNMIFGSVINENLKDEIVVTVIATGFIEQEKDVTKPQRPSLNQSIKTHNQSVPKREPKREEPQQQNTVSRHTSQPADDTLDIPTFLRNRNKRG
Test: fluorescence titration with purified FtsZ (poorer fit, R^[…] = […]); also GTPase inhibition and sedimentation
Format: binding
Value Kind: Kd

Input line: // query Kd value for entry CCCCCOC(=O)c1cc(O)c(O)c(O)c1 [compound 8, Pentyl gallate]
Output line: ~3.1 µM

====

Target: FtsZ (Bacillus subtilis)
Experiment: fluorescence titration (intrinsic alkyl gallate fluorescence) with purified FtsZ; also GTPase inhibition and sedimentation
Assay type: binding
Parameter: Kd. Scope: all listed entries.
Put your answer as a value accompanied by its unit after it.

>>> meas_value("CCCCCCCOC(=O)c1cc(O)c(O)c(O)c1 [compound 10, Heptyl gallate]")
"80 nM"

# input for lookup
Input line: // query Kd value for entry CCCCCCCCOC(=O)c1cc(O)c(O)c(O)c1 [compound 11, Octyl gallate]
Output line: 840 nM
